Measured TGI by item
Test system: LOX IMVI melanoma
Experiment: NCI tumour cell line growth inhibition, 48 h
Where a SMILES comes first, the peptide text is derived from it. [ ]: non-standard residue; d: D form.

Illustrative cases are given below, each with its answer.
// sample NC(N)=NCCC[C@H]1NC(=O)[C@@H](CCC(=O)O)NC(=O)[C@@H](CC(=O)O)NC(=O)[C@@H](CCC(=O)O)NC(=O)[C@H](Cc2c[nH]c3ccccc23)NC1=O (cyclo(W[dE][dD][dE][dR])) , its TGI was > 7.5 µM

// sample C=C(Cl)C(Cl)(CBr)CCCC(C)(C)Cl (stereo not drawn) , its TGI was 40.9 µM

Now let's try a different one.
// sample "CC(C)C(=O)OCN(C)c1nc(N(C)COC(=O)C(C)C)nc(N(C)COC(=O)C(C)C)n1" , its TGI was 39.1 µM
